Tested on: XIP peptide (Xip251-270)
Method summary: small-molecule binders of XIP peptide, primary screen, biochemical, small-molecule microarray, fluorescence 635/667 nm, 0.5 µg/mL protein (AID 1183)
Measurement context: small-molecule microarray binding, fluorescence 635 nm; higher = more signal
Endpoint: composite z-score

# Compound, Measured
rows = [
    ("COc1ccc(COC(=O)NN=C2C[C@@H](O)[C@@H](O)[C@@H]3[C@@H]4C(=O)N(Cc5ccccc5)C(=O)[C@@H]4CC[C@H]23)cc1", -0.0564),
    ("CCN1C(=O)[C@@H]2[C@H]3C(=CC[C@@H]2C1=O)C1(OCCCO1)[C@H]1O[C@H]1[C@H]3O", 0.689),
    ("CC(C)CON=C1C[C@@H](O)[C@@H](O)[C@@H]2[C@@H]3C(=O)N(C4CCCCC4)C(=O)[C@@H]3CC[C@H]12", 0.793),
    ("COC(=O)[C@H]1[C@@H](O)[C@@]2(O)c3ccccc3O[C@@]2(c2ccccc2)[C@@H]1c1ccccc1", -0.028),
]

* * *

Method summary: P. aeruginosa biofilm formation inhibitors, primary screen, PAO1 strain, BacTiter-Glo luminescence, LB-PBS (AID 1144)
Measurement context: 12 h, higher = more signal
Lab note: anything with z-score at or over -0.4 counts as 1; the rest go in -1.

# Compound, Qualitative label
data = [
    ("CC(C)CON=C1[C@H]2CCn3c(=O)n(Cc4cc5c(cc4Cl)OCO5)c(=O)n3[C@H]2[C@H](O)[C@@H]2O[C@H]12", 1),
    ("COc1cccc([C@H]2Oc3ccc(OC)cc3C(=NOC[C@@H](O)COCc3ccco3)[C@@H]2O)c1", 1),
    ("O=C(NN=C1C[C@@H](O)[C@@H](O)[C@@H]2[C@@H]3C(=O)N(Cc4ccccc4)C(=O)[C@@H]3CC[C@@H]12)OCc1ccccc1", -1),
    ("CCOC(=O)[C@H](Cc1ccccc1)NC(=O)CCC1CC(OC(=O)NCCc2ccc(F)cc2)CC2(CCCC(COC(=O)NCc3ccccc3)O2)O1 (stereo partly specified)", 1),
    ("O=C1[C@H]2[C@H]3[C@H](O)[C@H](O)CC(=NOC[C@@H](O)COCc4ccco4)[C@H]3CC[C@H]2C(=O)N1c1ccc(F)cc1F", -1),
]

* * *

Each record here notes measured composite z-score.
Study system: Focal adhesion kinase 1 (Homo sapiens)
Method summary: small-molecule microarray binders of FAK, primary screen, biochemical, 635/667 nm fluorescence, BSA, DTT (AID 1130);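 further: composite of spot emission at 667 nm and signal to noise over triplicate slides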
Measurement context: PTK2 binding, 635 nm fluorescence, higher = more signal

# Compound, composite z-score
measured = [
    ("CO[C@@H]1COC(=O)[C@@H]2CCCN2C(=O)[C@@H](C)COC(=O)CC=C[C@H]1C", -0.194),
    ("O=C(C=Cc1ccc2c(c1)OCO2)c1ccc(F)cc1", -0.174),
    ("CCOC(=O)[C@H](Cc1ccccc1)NC(=O)CCC1CC(OC(=O)NCCc2ccc(F)cc2)CC2(CCCC(COC(=O)NCC3CCCCC3)O2)O1 (stereo partly drawn)", 0.465),
]

* * *

Listing of entries alongside the reported composite z-score.
Method summary: binders of probe aFGF10 on microarray, primary screen, stem cell growth factor project, biochemical, small-molecule microarray, fluorescence 635/667 (AID 1071);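 further: score merges 667 nm spot intensity and signal to noise from triplicate slides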
Measurement context: higher = more signal

# Molecule, composite z-score
rows = [
    ("CCOC(=O)[C@H](CC(C)C)NC(=O)CCC1CC(OC(=O)NCc2cccc3ccccc23)CC2(CCCC(COC(=O)NCCC(C)C)O2)O1 (stereo partly specified)", 0.176),
    ("CO[C@@H]1COC(=O)CC=C[C@@H](C)[C@@H]2C=C[C@H](O)[C@@H](COC(=O)CC=C[C@H]1C)O2", -0.14),
    ("Cc1cc2c(nc1C)CCCCN2CC(C)ON=C[C@@H](C)[C@H](OCc1ccccc1)C(C)C (stereo partly specified)", -1.05),
    ("COc1ccc(O[C@H]2C=C[C@@H](c3ccccc3)O[C@@H]2CON=C(C)C)cc1", -0.531),
    ("C=CC[C@@H]1C=C[C@H](ON=C(C)CCN2CCc3nc(-c4ccccc4)c(-c4ccccc4)cc3C2)[C@@H](CO)O1", 0.34),
    ("CCc1cc2c(nc1CC)CCN(CCC(C)=NOC[C@H]1O[C@H](c3ccccc3)C=C[C@@H]1Oc1ccc(OC)cc1)C2", -0.147),
]
